The reported numbers originate from patent US20240408169A1.

# Assay target: CyclinE1/CDK2 (Homo sapiens, UniProt P24864)
# Construct: purchased Eurofins, discovery 14-475
# Protocol notes: Fluorescence Polarization (FP) competitive binding assay, Cyclin E1/Cdk2;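 also: readings taken after two-hour equilibration at room temperature in HEPES buffer with NaCl, DTT, NP-40 and BSA, IC50 fitted from eight-concentration serial dilution series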
# Experimental parameters: 10 nM Cyclin E1/Cdk2, 2 nM FAM probe; average of 2-3 independent experiments; read-out: Cyclin E FP IC50
*1 amine or outer side, *2 acyl side, *3 side chain or, on linkers, in order; H or OH if unused. Where a SMILES comes first, the peptide text is derived from it. Bridges are numbered along the chain shown (N, C = ends). [ ]: non-standard residue; d: D form. The star is where a group is joined. X43 = CC(C)N1CCN(c2ccc(-c3ccc(Cl)cc3C[C@@H](C(=O)[*:2])N(C)[*:1])cc2)CC1; NMehhhLys(Me) = CN([C@@H](CCCCCCCN(C)[*:3])C(=O)[*:2])[*:1]; cBuCO(3,3-F2-1-CF3) = O=C(C1(C(F)(F)F)CC(F)(F)C1)*; Pro(trans-4-F) = O=C(O)[C@@H]1C[C@@H](F)CN1; Gly(cPr) = N[C@H](C(=O)O)C1CC1
Readout name: pIC50
One number for each entry, as −log10 of the molar value.

# annotated cases, reported pIC50 shown
{"Compound": "CC(C)C[C@@H]1NC(=O)[C@@H](N(C)C(=O)[C@H](CCC(=O)N2CCN(C)CC2)NC(=O)[C@@H]2C[C@@H](F)CN2C(=O)C2(C(F)(F)F)CC(F)(F)C2)CCCCCCCN(C)C(=O)[C@H](Cc2cc(Cl)ccc2-c2ccc(N3CCOCC3)cc2)N(C)C1=O", "pIC50": 6.72}
{"Compound": "CC(C)C[C@@H]1NC(=O)[C@@H](N(C)C(=O)[C@@H](NC(=O)[C@@H]2C[C@@H](F)CN2C(=O)C2(C(F)(F)F)CC(F)(F)C2)C2CC2)CC=CCCCCNC(=O)[C@H](Cc2cc(F)ccc2-c2cnn(C)c2)N(C)C1=O", "pIC50": 6.74}

# ---- query compound ----
Entry CC(C)C[C@@H]1NC(=O)[C@@H](N(C)C(=O)[C@@H](NC(=O)[C@@H]2C[C@@H](F)CN2C(=O)C2(C(F)(F)F)CC(F)(F)C2)C2CC2)CCCCCCCN(C)C(=O)[C@H](Cc2cc(Cl)ccc2-c2ccc(N3CCN(C(C)C)CC3)cc2)N(C)C1=O [Example 347] ({cBuCO(3,3-F2-1-CF3)}-[Pro(trans-4-F)][Gly(cPr)][NMehhhLys(Me)]L[X43]; lactam 3-C) , CyclinE1/CDK2 (Homo sapiens, UniProt P24864) data, pIC50 value: 6.19
